molecular target: T1, ZIKV-VLP (Native Antigen Inc.) (Zika virus); experiment: BLI binning on ZIKV-VLP; 1st mAb (row): 270-12
T1 construct: also called Zika VLP; ZVLP
METRIC_NAME: response of 2nd mAb

Reference set, count: 2
| BINDER | response of 2nd mAb |
| --- | --- |
| anti-ZIKV antibody 242-3 (antibody, V domains shown, also called clone 242-3) VH: QAQLEESGGDLVKPEGSLTLTCTASGFSFTDRHYMCWIRQAPGKGLEWIACVYPGSSGSTYYASWARGRFTISKTSSTTVTLRMTSLTAADTATYFCARSSYPDSSGYSYGMDLWGPGTLVTVSS VL: DIVMTQTPASVEAAVGGTVTIKCQASQNINSNLAWYQQKPGQRPKFLMYLTSKLASGVPSRFRGSGSGTQFTLTISDLECADAATYYCQTYYDISNYGYAFGGGTEVVVK | 0.0325 |
| anti-ZIKV antibody 270-12 (antibody, V domains shown, also called clone 270-12) VH: QAQLEESGGDLVKPEGSLTLTCTASGFSFTDRHYMCWVRQAPGKGLEWIACVYPGSSGSTYYASWARGRFTISKTSSTTVTLRMTSLTAADTATYFCARSSYPDSSGYSYGMDLWGPGTLVTVSS VL: DIVMTQTPASVEAAVGGTVTIKCQASQDINSNLAWYQQKPGQRPKFLMYLTSKLASGVPSRFRGSGSGTQFTLTISDLECADAATYYCQTYYDISNYGYAFGGGTEVVVKG | 0.0171 |

Proceeding to the next binder to report its response of 2nd mAb.
Record anti-ZIKV antibody 306-2 (antibody, V domains shown) VH: QSLEESGGDLVKPGASLTLTCTASGFDFSDRYYMCWVRQAPGKGLEWIGCIYVGSGDTYYASWAKGRFTISRTSSTTVTLQMTRLTAADTATYFCARHPGTYFTLWGPGTLVTVSS VL: DVVMTQTPSSVSAAVGGTVTINCQASQNIVNNLAWYQQRPGQPPKLLIYDTSTLASGVPSRFKGSGSGTEFTLTISDLECADAATYYCQTYYYYNKIINGFGGGTEVVVKG , field response of 2nd mAb: 0.0125

Reference source for all entries: patent US20220332800A1
